Reported Average PWL Post-Treatment values for the following molecules.
tested on: CFA-induced cold hypersensitivity of the hind paw; assay: CFA-induced pain test, cold hypersensitivity (cold plate paw withdrawal latency); format: in vivo; conditions: 3 mg/kg PO, 1-2 hour pre-treatment; cold plate 1° C.; solution in 4% DMSO; 5% Tween-80; 20% Cremophor EL; and 71% water
Metric Name: Average PWL Post-Treatment

- Cc1cc(Cn2c(=O)c3c(ncn3[C@@H](C)C(=O)Nc3cncc(-c4cnc(C(F)(F)F)nc4)n3)n(C)c2=O)no1: 258.9
- CC(=O)Cn1c(=O)c2c(ncn2[C@@H](C)C(=O)Nc2cccc(-c3cnc(C)c(C(F)(F)F)c3)n2)n(C)c1=O: 260.8
- COCC(=O)Cn1c(=O)c2c(ncn2[C@@H](C)C(=O)Nc2csc(-c3cnc(N4CC5CC5C4)nc3)n2)n(C)c1=O (stereo partly shown): 226.3
- Cc1noc(Cn2c(=O)c3c(ncn3[C@@H](C)C(=O)Nc3cncc(-c4cnc(C(F)(F)F)nc4)n3)n(C)c2=O)n1: 253.6

Every entry's value here was drawn from patent US10221177B2.
